Form field: logP (one value per entry).
# respond with the number and nothing more

Before answering, review these 5 worked examples.
INSERT INTO measurements (molecule, test_readout, recorded_result) VALUES
  ('S=C=S', 'logP', 1.94),
  ('COC(=O)[C@H]1[C@H]2C[C@H]3c4[nH]c5ccccc5c4CCN3C[C@H]2CC[C@@H]1O', 'logP', 2.54),
  ('CCOC(=O)CNC(=O)C=[N+]=[N-]', 'logP', -0.08),
  ('CN(O)N=Nc1ccc(C(N)=O)cc1', 'logP', -0.22),
  ('CC1(C)C=Cc2ccccc2O1', 'logP', 3.31);

What the record says about O=C(O)C(c1ccccc1)c1ccccc1 : logP is 3.09

What the record says about COCC(O)Cn1cnc([N+](=O)[O-])n1 (centres undefined) : logP is -0.49

What the record says about NS(=O)(=O)c1nc2ccccc2s1 : logP is 1.33

What the record says about CCC(=O)OC1(C(C)=O)C(C)CC2C3CCC4=CC(=O)C=CC4(C)C3(F)C(=O)CC21C (centres undefined) : logP is 3.09

What the record says about CCc1ccccc1N : logP is 1.74

What the record says about CC1(C)Oc2c(O)cccc2C1=O : logP is 1.87

What the record says about S=C1CCCN1 : logP is -0.05

What the record says about Cc1ccc(C(=O)NN)cc1 : logP is 0.72

What the record says about O=C(Nc1ccccc1)Nc1ccccc1 : logP is 3

====

test_readout: logP
# respond with the number and nothing more

Before answering, review these 6 worked examples.
INSERT INTO results (entry_smiles, recorded_result) VALUES
  ('COc1ccc(NC=O)cc1', 1.03),
  ('O=C1C=CC(=O)c2ccccc21', 1.71),
  ('CCC(C)(C)C', 3.82),
  ('Nc1nc2cc(Cl)ccc2[nH]1', 1.88),
  ('CC(C)Nc1nc(Cl)nc(NC(C)C)n1', 2.93),
  ('Nc1ccc(C(=O)Oc2cccc(Br)c2)c(O)c1', 3.84);

What the record says about CC1=C(O)C(=O)c2ccccc2C1=O : logP is 1.2

What the record says about FC(F)(Cl)C(F)(F)Cl : logP is 2.82

====

Decision: logP compared against 0.8; not below it gives class 1, below it gives class 0.

Consider the worked cases shown below.
INSERT INTO measurements (compound, class_assignment) VALUES
  ('C#CCC(O)(c1ccc(F)cc1)c1cccnc1 (configuration not stated)', 'class 1'),
  ('CNC(=O)Oc1ccccc1I', 'class 1'),
  ('COc1ccc2c(c1)C13CCN4CC5=CCOC6CC(=O)N2C1C6C5CC43 (configuration not stated)', 'class 1');

(Q) State whether the measured logP reaches 0.8, counting equality as reaching it, for C[N+](C)(C)c1ccccc1.[I-]
(A) class 0

(Q) State whether the measured logP reaches 0.8, counting equality as reaching it, for CCCNC(=O)NO
(A) class 0

(Q) State whether the measured logP reaches 0.8, counting equality as reaching it, for CCCC(=O)OCn1cnc(CSCCNC(=NC#N)NC)c1C
(A) class 1

====

Form field: logP (one value per entry).
# respond with the number and nothing more

Before answering, review these 8 worked examples.
INSERT INTO results (compound, recorded_result) VALUES
  ('CCOC(=O)C(C#N)=Cc1ccccc1', 2.43),
  ('CNc1nc2ccccc2o1', 1.82),
  ('CCCS(=O)(=O)CCn1c([N+](=O)[O-])cnc1C', 0.23),
  ('COc1ccc(CCNCC(O)COc2cccc(C)c2)cc1OC (configuration not stated)', 3),
  ('CC12CCC(=O)C=C1CCC1C3CCC(O)(C(=O)CO)C3(C)CC(O)C12F (configuration not stated)', 1.67),
  ('O=[N+]([O-])c1cccc(C(F)(F)F)c1', 2.62),
  ('COc1ccc2ncccc2c1', 2.2),
  ('CCCCOC(=O)CNC(=O)CCCCSc1[nH]cnc2ncnc1-2', 1.39);

What the record says about COc1ccccc1C(=O)O : logP is 1.59

What the record says about CCOP(=O)(OCC)SCSCC : logP is 2.07

What the record says about COc1cc(CCN)cc(OC)c1Br : logP is 2.03

What the record says about CCCCC(N)Cc1ccccc1 (configuration not stated) : logP is 3.36

====

Decision: logP compared against 1; not below it gives satisfied, below it gives not satisfied.

Consider the worked cases shown below.
INSERT INTO measurements (molecule, class_assignment) VALUES
  ('O=C(O)Cc1cccc(C(=O)O)c1', 'satisfied'),
  ('O=C(O)Cc1ccc2ccccc2c1', 'satisfied'),
  ('CNc1nc(NC(C)(C)C)nc(SC(F)F)n1', 'satisfied'),
  ('Cc1cc([N+](=O)[O-])cc2c1NC(=O)CN=C2c1ccccc1', 'satisfied'),
  ('CCCCCCc1ccc(O)cc1O', 'satisfied'),
  ('C[C@H](N)[C@H](O)c1cccc(O)c1', 'not satisfied'),
  ('O=C(O)COc1ccc([N+](=O)[O-])cc1', 'satisfied'),
  ('Nc1cccc(Br)c1', 'satisfied');

(Q) State whether the measured logP reaches 1, counting equality as reaching it, for CNc1nc(NC)nc(SC(F)F)n1
(A) satisfied

(Q) State whether the measured logP reaches 1, counting equality as reaching it, for NC(=O)C(=Cc1cccc(F)c1)C(N)=O
(A) not satisfied

(Q) State whether the measured logP reaches 1, counting equality as reaching it, for C=C1C[C@]23C[C@@]1(O)CC[C@H]2[C@@]12C=C[C@H](O)[C@@](C)(C(=O)O1)[C@H]2[C@@H]3C(=O)O
(A) not satisfied

====

test_readout: logP
# respond with the number and nothing more

Before answering, review these 6 worked examples.
INSERT INTO assay_data (compound, recorded_result) VALUES
  ('O=C(NC(=O)c1ccccc1O)c1ccccc1O', 1.92),
  ('Nc1nc(N)nc(-c2ccccc2Br)n1', 1.26),
  ('COc1cccc2c1C(=N)c1c(O)c3c(c(O)c1C2=O)CC(O)(C(=O)CO)CC3OC1CC(N2CCOCC2C#N)C(O)C(C)O1 (centres undefined)', 1.97),
  ('Cc1ccc2c(c1)c([N+](=O)[O-])cc[n+]2[O-]', 1.43),
  ('CSSC', 1.77),
  ('CC(C)COC(N)=O', 0.65);

What the record says about CSc1ccc2c(c1)N(CCC1CCCCN1C)c1ccccc1S2 (centres undefined) : logP is 5.9

What the record says about Nc1cccc(OC(=O)c2ccc(N)cc2O)c1 : logP is 2.08

What the record says about C1CC1 : logP is 1.72

What the record says about Cn1c(N)nc2ccc(C#N)cc21 : logP is 1.29

What the record says about OCCNCc1ccccc1 : logP is 0.79

What the record says about CN(C)C(=O)Nc1cccc(Cl)c1 : logP is 2

What the record says about O=[N+]([O-])c1cc2ccccc2nn1 : logP is 0.73

What the record says about O=[N+]([O-])c1ccnc2ccccc12 : logP is 2.06

====

Form field: logP (one value per entry).
# respond with the number and nothing more

What the record says about COP(=O)(OC)OC(Br)C(Cl)(Cl)Br (stereo not drawn) : logP is 1.38

====

Form field: logP (one value per entry).
# respond with the number and nothing more

Before answering, review these 5 worked examples.
INSERT INTO assay_data (entry_smiles, recorded_result) VALUES
  ('NC(=O)Nc1ccc(Oc2ccccc2)cc1', 2.8),
  ('O=NN1CCCCC1', 0.36),
  ('Cc1ccccc1N(C)C', 2.85),
  ('COc1cc(CCO)ccc1O', 0.47),
  ('Cc1cccc2nccnc12', 2.04);

From here, focus on the item given below.
What the record says about CC(=O)N(C)N=Nc1ccc(C)cc1 : logP is 3.23

====

Decision: logP compared against 3; not below it gives 1.0, below it gives 0.0.

Consider the worked cases shown below.
INSERT INTO results (entry_smiles, class_assignment) VALUES
  ('Oc1cccc(F)c1', 0.0),
  ('CN1CCCCC1', 0.0),
  ('CC(=O)c1ccc2cccccc1-2', 0.0);

Next compound, please.
(Q) State whether the measured logP reaches 3, counting equality as reaching it, for CC(C)(C)c1cccc(C(C)(C)C)c1O
(A) 1.0

====

Peptide text beside a SMILES is read from it.
Form field: logP (one value per entry).
# respond with the number and nothing more

INSERT INTO assay_data (molecule, recorded_result) VALUES
  ('OCCCF', -0.28),
  ('CC(Oc1cc(Cl)c(Cl)cc1Cl)C(=O)O (stereo not given)', 3.8),
  ('CC1(C)N=C(N)N=C(N)N1c1ccccc1', 0.28),
  ('CC[C@H](C)[C@H](NC(C)=O)C(=O)N[C@H](C(N)=O)C(C)C (Ac-Ile-Val-NH2)', 0.16);

From here, focus on the item given below.
What the record says about Cc1ncc(CNC(=O)N(CCCl)N=O)c(N)n1 : logP is 0.39
